B1: KRT18 (parent)
chain: PQVRDWSHYFKIIEDLRAQIFANT

# Variants of: B1
# EXPERIMENTAL PROTOCOL: protein stability index of a GFP-peptide fusion (GPS, HEK-293T) (PSI 1-6); higher = more stable;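 further: lentivirally expressed fusions sorted by FACS into six bins by GFP to DsRed ratio, PSI derived from sequencing read proportions per bin multiplied by bin number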
# CONDITION DESCRIPTION: c terminus: a fixed tail appended
METRIC NAME: protein stability index
Field format: numeric only.

PQVRDWSPYFKIIEDLRAQIFANT : 1.83
PQVRDWSHYFKINEDLRAQIFANT : 2.38
PQVRDWSHYFKIIEDLRAQIFANH : 2.43
PQVRDRSHYFKIIEDLRAQIFANT : 2.13
PQWRDWSHYFKIIEDLRAQIFANT : 1.7
PQVRDWSFYFKIIEDLRAQIFANT : 1.59
QQVRDWSHYFKIIEDLRAQIFANT : 2.38
PQVRDWSHYEKIIEDLRAQIFANT : 2.26

INPUT: Any idea what its protein stability index is? The variant is PQLRDWSHYFKIIEDLRAQIFANT
OUTPUT: 2.88

INPUT: Any idea what its protein stability index is? The variant is PQVRDWSHYFKIIEDLRAQTFANT
OUTPUT: 2.83

INPUT: Any idea what its protein stability index is? The variant is PQVRDWSRYFKIIEDLRAQIFANT
OUTPUT: 1.98

INPUT: Any idea what its protein stability index is? The variant is PQVRDWSHYFKIIEDLRAQIFANE
OUTPUT: 3.47

INPUT: Any idea what its protein stability index is? The variant is PQVRDWSHYFKIIEDLRAQHFANT
OUTPUT: 1.89

INPUT: Any idea what its protein stability index is? The variant is PQVRDWIHYFKIIEDLRAQIFANT
OUTPUT: 2.13

INPUT: Any idea what its protein stability index is? The variant is PQVRDWSHYFKIIEDLRAQPFANT
OUTPUT: 1.91

INPUT: Any idea what its protein stability index is? The variant is PQVRDWSHYFKIIEDCRAQIFANT
OUTPUT: 1.7

INPUT: Any idea what its protein stability index is? The variant is PQVRDESHYFKIIEDLRAQIFANT
OUTPUT: 2.97

INPUT: Any idea what its protein stability index is? The variant is PHVRDWSHYFKIIEDLRAQIFANT
OUTPUT: 2.17

INPUT: Any idea what its protein stability index is? The variant is PQVRNWSHYFKIIEDLRAQIFANT
OUTPUT: 2.16

INPUT: Any idea what its protein stability index is? The variant is PQVRDVSHYFKIIEDLRAQIFANT
OUTPUT: 1.92

INPUT: Any idea what its protein stability index is? The variant is PQVRDWSHYFKIIEDLRATIFANT
OUTPUT: 2.8

INPUT: Any idea what its protein stability index is? The variant is PQVRDWSHYFKIIEDLRAQIFHNT
OUTPUT: 2

INPUT: Any idea what its protein stability index is? The variant is PQVRDWSHYFKILEDLRAQIFANT
OUTPUT: 2.27

INPUT: Any idea what its protein stability index is? The variant is PQVRDWSHYFKIIEDLRAQCFANT
OUTPUT: 1.86
